Test Target: T1, human factor IX (human, UniProt P00740 47-461, 12 glutamic acid residues of the GLA domain are post-translationally γ-carboxylated)
T1 construct: Zymogen used as analyte in SPR, reconstituted at 1 mg/ml; also called FIX; Human FIX (MW ~55 KDa)
T1 sequence (P00740 47-461 limits assumed): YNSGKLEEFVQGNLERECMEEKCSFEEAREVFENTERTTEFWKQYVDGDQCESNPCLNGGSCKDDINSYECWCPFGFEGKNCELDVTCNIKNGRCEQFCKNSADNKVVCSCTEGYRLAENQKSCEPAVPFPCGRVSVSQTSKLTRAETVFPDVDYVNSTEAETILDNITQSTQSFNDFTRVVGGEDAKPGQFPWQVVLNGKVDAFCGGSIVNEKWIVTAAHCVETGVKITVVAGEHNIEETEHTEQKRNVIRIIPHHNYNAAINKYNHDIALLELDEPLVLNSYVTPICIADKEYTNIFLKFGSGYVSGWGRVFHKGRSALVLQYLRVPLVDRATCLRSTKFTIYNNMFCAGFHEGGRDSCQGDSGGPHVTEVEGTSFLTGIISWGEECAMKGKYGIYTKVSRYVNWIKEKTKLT
Assay Name: SPR, IgG captured on anti-human IgG Fc, human FIX as analyte
# koff values compiled below

Binder	Readout Unit	koff
NINA-0128 (antibody, V domains shown) VH: EVQLVESGGGFVQPGGSLRLSCAVSGFTFNSYWMSWVRQAPGKGLEWVANINQDGSEKFYVASVKGRFTMSRDNAKKSVYVQMNSLRAEDTAVYYCAREGYSSSSYYGMDVWGQGTTVTVSS VL: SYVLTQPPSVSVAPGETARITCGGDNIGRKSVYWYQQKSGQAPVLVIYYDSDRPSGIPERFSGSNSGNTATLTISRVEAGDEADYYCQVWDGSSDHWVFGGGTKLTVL	s⁻¹	0.0576
NINA-0440.0128 (antibody, V domains shown) VH: EVQLVESGGGFVQPGGSLRLSCAVSGFTFNSYWMSWVRQAPGKGLEWVANINQDGSEKFYVASVKGRFTMSRDNAKKSVYVQMNSLRAEDTAVYYCAREGYSSNSYYGMDVWGQGTTVTVSS VL: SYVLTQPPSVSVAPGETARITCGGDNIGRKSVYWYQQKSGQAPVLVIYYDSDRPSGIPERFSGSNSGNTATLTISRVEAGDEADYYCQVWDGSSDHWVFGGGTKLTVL	s⁻¹	0.0535
